# (%) inhibition of MIF nuclease activity values compiled below
biological target: MIF (Homo sapiens); assay: Nuclease assay of Example 3 (MIF inhibitory activity, Table 4); type: biochemical; set-up: concentration or dose not given beside the values; details: nuclease assay of Example 3
Sequence (P14174 whole entry): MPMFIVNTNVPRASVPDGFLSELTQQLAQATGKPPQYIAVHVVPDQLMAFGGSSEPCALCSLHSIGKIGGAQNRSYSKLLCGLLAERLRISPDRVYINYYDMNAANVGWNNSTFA

compound: COc1ccc(CC[C@H]2OC(=O)[C@@H]3CCCCN3C(=O)C(=O)C(C)(C)COC(=O)C=CCCN(C)C(=O)[C@H](Cc3ccccc3)NC(=O)[C@H](COC(C)(C)C)N(C)C(=O)C(c3ccccc3)NC(=O)[C@H](C)N(C)C(=O)COc3cccc2c3)cc1OC (stereo partly shown)
system: MIF (Homo sapiens)
(%) inhibition of MIF nuclease activity: 14.1

compound: COc1ccc(CC[C@H]2OC(=O)[C@@H]3CCCCN3C(=O)C(=O)C(C)(C)COC(=O)C=CCCN(C)C(=O)[C@H]3CCCN3C(=O)[C@H](COC(C)(C)C)N(C)C(=O)C(c3ccccc3)NC(=O)[C@H](C)N(C)C(=O)COc3cccc2c3)cc1OC (stereo partly shown)
system: MIF (Homo sapiens)
(%) inhibition of MIF nuclease activity: 25.8

compound: COc1ccc(CC[C@H]2OC(=O)[C@@H]3CCCCN3C(=O)C(=O)C(C)(C)COC(=O)C=CCCN(C)C(=O)[C@@H]3CCCN3C(=O)[C@H](C(C)C)N(C)C(=O)[C@@H](Cc3ccccc3)NC(=O)[C@H](CC(C)C)N(C)C(=O)CCC(=O)Nc3cccc2c3)cc1OC
system: MIF (Homo sapiens)
(%) inhibition of MIF nuclease activity: 22.7

compound: COc1ccc(CC[C@H]2OC(=O)[C@@H]3CCCCN3C(=O)C(=O)C(C)(C)COC(=O)C=CCCN(C)C(=O)[C@H](Cc3ccc(F)cc3)NC(=O)[C@H](COC(C)(C)C)N(C)C(=O)[C@@H](CC(C)C)NC(=O)CN(C)C(=O)COc3cccc2c3)cc1OC
system: MIF (Homo sapiens)
(%) inhibition of MIF nuclease activity: 56.8

----------
biological target: MIF (Homo sapiens); assay: Nuclease assay of Example 3 (MIF inhibitory activity, Table 4); assay type: biochemical; set-up: concentration or dose not given beside the values; conditions: nuclease assay of Example 3
Decision: (%) inhibition of MIF nuclease activity compared against 20%; not below it gives 1 (yes), below it gives 0 (no).

compound: COc1ccc(CC[C@H]2OC(=O)[C@@H]3CCCCN3C(=O)C(=O)C(C)(C)COC(=O)C=CCCN(C)C(=O)[C@H](Cc3ccc(F)cc3)NC(=O)[C@H](COC(C)(C)C)N(C)C(=O)[C@H](Cc3ccc4ccccc4c3)NC(=O)[C@H](C)N(C)C(=O)COc3cccc2c3)cc1OC
system: MIF (Homo sapiens)
class-assignment: 1 (yes)
//
compound: COc1ccc(CC[C@H]2OC(=O)[C@@H]3CCCCN3C(=O)C(=O)C(C)(C)COC(=O)C=CCCN(C)C(=O)[C@@H]3CCCN3C(=O)[C@H](COC(C)(C)C)N(C)C(=O)[C@H](Cc3ccccc3)N(C)C(=O)[C@H](C)NC(=O)COc3cccc2c3)cc1OC
system: MIF (Homo sapiens)
class-assignment: 0 (no)
//
compound: COc1ccc(CC[C@H]2OC(=O)[C@@H]3CCCCN3C(=O)C(=O)C(C)(C)COC(=O)C=CCCN(C)C(=O)[C@@H](C)NC(=O)[C@H](COC(C)(C)C)N(C)C(=O)C(c3ccccc3)NC(=O)CN(C)C(=O)COc3cccc2c3)cc1OC (some centres unmarked)
system: MIF (Homo sapiens)
class-assignment: 0 (no)
//
compound: COc1ccc(CC[C@H]2OC(=O)[C@@H]3CCCCN3C(=O)C(=O)C(C)(C)COC(=O)C=CCCN(C)C(=O)[C@@H]3CCCN3C(=O)[C@H](CO)N(C)C(=O)C(c3ccccc3)NC(=O)[C@H](C)N(C)C(=O)COc3cccc2c3)cc1OC (some centres unmarked)
system: MIF (Homo sapiens)
class-assignment: 0 (no)
//
compound: COc1ccc(CC[C@H]2OC(=O)[C@@H]3CCCCN3C(=O)C(=O)C(C)(C)COC(=O)C=CCCN(C)C(=O)[C@H](CC(C)C)NC(=O)[C@H](Cc3ccccc3)N(C)C(=O)[C@@H](C)NC(=O)CN(C)C(=O)COc3cccc2c3)cc1OC
system: MIF (Homo sapiens)
class-assignment: 1 (yes)
//
compound: C[C@H]1C(=O)NC(c2ccccc2)C(=O)N(C)[C@@H](COC(C)(C)C)C(=O)N2CCC[C@H]2C(=O)N(C)CCC=CC(=O)OCC(C)(C)C(=O)C(=O)N2CCCC[C@H]2C(=O)O[C@H](CCc2ccccc2)c2cccc(c2)OCC(=O)N1C (some centres unmarked)
system: MIF (Homo sapiens)
class-assignment: 0 (no)
//
compound: COc1ccc(CC[C@H]2OC(=O)[C@@H]3CCCCN3C(=O)C(=O)C(C)(C)COC(=O)C=CCCN(C)C(=O)[C@@H](CC(C)C)NC(=O)[C@H](COC(C)(C)C)N(C)C(=O)C(c3ccccc3)NC(=O)[C@H](C)N(C)C(=O)COc3cccc2c3)cc1OC (some centres unmarked)
system: MIF (Homo sapiens)
class-assignment: 0 (no)

----------
molecular target: MIF (Homo sapiens); assay: Nuclease assay of Example 3 (MIF inhibitory activity, Table 4); assay type: biochemical; set-up: concentration or dose not given beside the values; conditions: nuclease assay of Example 3

query-smiles: COc1ccc(CC[C@H]2OC(=O)[C@@H]3CCCCN3C(=O)C(=O)C(C)(C)COC(=O)C=CCCN(C)C(=O)[C@@H](Cc3ccccc3)NC(=O)[C@H](Cc3ccccc3)N(C)C(=O)[C@@H](C)NC(=O)CN(C)C(=O)COc3cccc2c3)cc1OC
system: MIF (Homo sapiens)
unit-string: %
(%) inhibition of MIF nuclease activity: 20.7
--
query-smiles: COc1ccc(CC[C@H]2OC(=O)[C@@H]3CCCCN3C(=O)C(=O)C(C)(C)COC(=O)C=CCCN(C)C(=O)[C@@H](Cc3ccccc3)NC(=O)[C@H](COC(C)(C)C)N(C)C(=O)[C@H](Cc3ccc4ccccc4c3)NC(=O)[C@H](C)N(C)C(=O)COc3cccc2c3)cc1OC
system: MIF (Homo sapiens)
unit-string: %
(%) inhibition of MIF nuclease activity: 40.3
--
query-smiles: COCC[C@@H]1NC(=O)[C@H](C(C)C)N(C)C(=O)[C@@H](Cc2ccccc2)NC(=O)[C@H](CC(C)C)N(C)C(=O)CCC(=O)Nc2cccc(c2)[C@@H](CCc2ccc(OC)c(OC)c2)OC(=O)[C@@H]2CCCCN2C(=O)C(=O)C(C)(C)COC(=O)C=CCCN(C)C1=O
system: MIF (Homo sapiens)
unit-string: %
(%) inhibition of MIF nuclease activity: 10.3
--
query-smiles: COc1ccc(CC[C@H]2OC(=O)[C@@H]3CCCCN3C(=O)C(=O)C(C)(C)COC(=O)C=CCCN(C)C(=O)[C@H](CC(C)C)NC(=O)[C@H](COC(C)(C)C)N(C)C(=O)[C@H](Cc3ccc4ccccc4c3)NC(=O)[C@H](C)N(C)C(=O)COc3cccc2c3)cc1OC
system: MIF (Homo sapiens)
unit-string: %
(%) inhibition of MIF nuclease activity: 57.9

----------
molecular target: UniProtKB P14174; test: Nuclease assay of Example 3 (MIF inhibitory activity, Table 4); assay type: biochemical; set-up: concentration or dose not given beside the values; settings: nuclease assay of Example 3

compound: COc1ccc(CC[C@H]2OC(=O)[C@@H]3CCCCN3C(=O)C(=O)C(C)(C)COC(=O)C=CCCN(C)C(=O)[C@@H](C)NC(=O)[C@H](COC(C)(C)C)N(C)C(=O)[C@@H](CC(C)C)NC(=O)CN(C)C(=O)COc3cccc2c3)cc1OC
unit-string: %
(%) inhibition of MIF nuclease activity: 21.0
--
compound: COc1ccc(CC[C@H]2OC(=O)[C@@H]3CCCCN3C(=O)C(=O)C(C)(C)COC(=O)C=CCCN(C)C(=O)[C@H](CC(C)C)NC(=O)[C@H](COC(C)(C)C)N(C)C(=O)C(c3ccccc3)NC(=O)CN(C)C(=O)COc3cccc2c3)cc1OC (some centres unmarked)
unit-string: %
(%) inhibition of MIF nuclease activity: 18.5
--
compound: COc1ccc(CC[C@H]2OC(=O)[C@@H]3CCCCN3C(=O)C(=O)C(C)(C)COC(=O)C=CCCN(C)C(=O)CNC(=O)[C@H](COC(C)(C)C)N(C)C(=O)C(c3ccccc3)NC(=O)CN(C)C(=O)COc3cccc2c3)cc1OC (some centres unmarked)
unit-string: %
(%) inhibition of MIF nuclease activity: 22.9
--
compound: COc1ccc(CC[C@H]2OC(=O)[C@@H]3CCCCN3C(=O)C(=O)C(C)(C)COC(=O)C=CCCN(C)C(=O)[C@@H]3CCCN3C(=O)[C@H](COC(C)(C)C)N(C)C(=O)C(c3ccccc3)NC(=O)[C@H](C(C)CC(C)(C)C)N(C)C(=O)COc3cccc2c3)cc1OC (some centres unmarked)
unit-string: %
(%) inhibition of MIF nuclease activity: −4.7
--
compound: COc1ccc(CC[C@H]2OC(=O)[C@@H]3CCCCN3C(=O)C(=O)C(C)(C)COC(=O)C=CCCN(C)C(=O)[C@H](C)NC(=O)[C@H](COC(C)(C)C)N(C)C(=O)C(c3ccccc3)NC(=O)CN(C)C(=O)COc3cccc2c3)cc1OC (some centres unmarked)
unit-string: %
(%) inhibition of MIF nuclease activity: 11.2
--
compound: COc1ccc(CC[C@H]2OC(=O)[C@@H]3CCCCN3C(=O)C(=O)C(C)(C)COC(=O)C=CCCN(C)C(=O)[C@H](CC(C)C)NC(=O)[C@H](C(C)C)N(C)C(=O)[C@@H](Cc3ccccc3)NC(=O)[C@H](CC(C)C)N(C)C(=O)CCC(=O)Nc3cccc2c3)cc1OC
unit-string: %
(%) inhibition of MIF nuclease activity: 12.3
--
compound: CCC[C@@H]1NC(=O)[C@H](COC(C)(C)C)N(C)C(=O)[C@@H](CC(C)C)NC(=O)CN(C)C(=O)COc2cccc(c2)[C@@H](CCc2ccc(OC)c(OC)c2)OC(=O)[C@@H]2CCCCN2C(=O)C(=O)C(C)(C)COC(=O)C=CCCN(C)C1=O
unit-string: %
(%) inhibition of MIF nuclease activity: 10.8
--
compound: COc1ccc(CC[C@H]2OC(=O)[C@@H]3CCCCN3C(=O)C(=O)C(C)(C)COC(=O)C=CCCN(C)C(=O)[C@H](C)N(C)C(=O)[C@H](COC(C)(C)C)N(C)C(=O)C(c3ccccc3)NC(=O)[C@H](C)N(C)C(=O)COc3cccc2c3)cc1OC (some centres unmarked)
unit-string: %
(%) inhibition of MIF nuclease activity: 12.0

Just for reference, patent US20220372014A1 is where these values come from.
